Recorded measurements of melting point, one per entry

CC(C)(CO)NS(=O)(=O)c1cnc(C#Cc2cnn3c(C4CC4)cc(-c4ccc(C(F)(F)F)cc4)nc23)s1 243 to 245 °C
CC(C)(CO)NS(=O)(=O)c1cncc(C#Cc2cnn3c(C4CC4)cc(-c4ccc(Cl)cc4)nc23)c1 230 to 231 °C
FC(F)(F)c1ccc(-c2cc(C(F)(F)F)n3ncc(C#Cc4ccccn4)c3n2)cc1 158 to 159 °C

Provide one value: measured melting point of Nc1ncc(C#Cc2cnc3ccc(-c4ccc(C(F)(F)F)cc4)cn23)cn1 244 to 246 °C

====

PROPERTY LABEL: melting point

// worked examples, melting point included
Fc1ccc(C#Cc2cnn3c(C(F)(F)F)cc(-c4ccc(C(F)(F)F)cc4)nc23)cn1 213 to 216 °C
CCc1cc(-c2ccc(Cl)cc2)nc2c(C#Cc3ccc(N)nc3)cnn12 205 to 206 °C
Nc1ccc(C#Cc2cnn3c(C(F)(F)F)cc(-c4ccc(Cl)cc4)nc23)nn1 247 to 248 °C
NS(=O)(=O)c1cc(C#Cc2cnn3c(C(F)(F)F)cc(-c4ccc(Cl)cc4)nc23)c(F)cc1F 292 to 293 °C
Cc1cc(-c2ccc(C(F)(F)F)cc2)nc2c(C#Cc3cnc(N)nc3)cnn12 246 to 248 °C

Provide one value: measured melting point of NS(=O)(=O)c1cccc(C#Cc2cnn3c(C4CC4)cc(-c4ccc(C(F)(F)F)cc4)nc23)c1 262 to 264 °C

====

Recorded measurements of melting point, one per entry

Cc1cc(-c2ccc(Cl)cc2)nc2c(C#Cc3ccc(C(C)(C)O)cc3)cnn12 112 to 115 °C
Cc1cc(-c2ccc(C(F)(F)F)cc2)nc2c(C#Cc3ccc(S(N)(=O)=O)cc3)cnn12 282 to 284 °C
NS(=O)(=O)c1ccc(C#Cc2ncn3c(C(F)(F)F)cc(-c4ccc(C(F)(F)F)cc4)nc23)cc1 290 °C
CNC(=O)c1ccc(C#Cc2cnn3c(C4CC4)cc(-c4ccc(Cl)cc4)nc23)cc1 214 to 216 °C
CNS(=O)(=O)c1cccc(C#Cc2cnn3c(C(F)F)cc(-c4ccc(C(F)(F)F)cc4)nc23)c1 192 to 194 °C

Pending compound:
Provide one value: measured melting point of Nc1cnc(C#Cc2cnn3c(C(F)(F)F)cc(-c4ccc(C(F)(F)F)cc4)nc23)cn1 200 °C

====

Binary call on melting point: 1 (yes) from 200 °C upward, 0 (no) beneath that.

Example entries begin here.
COMPOUND	CLASS
NS(=O)(=O)c1cnc(C#Cc2cnn3c(C(F)(F)F)cc(-c4cccc(C(F)(F)F)c4)nc23)s1 [Example 105]	1 (yes)
NCCNS(=O)(=O)c1ccc(C#Cc2cnn3c(C(F)(F)F)cc(-c4ccc(C(F)(F)F)cc4)nc23)s1 [Example 263]	0 (no)
O=S(=O)(NC(CO)CO)c1ccc(C#Cc2cnn3c(C(F)F)cc(-c4cccc(C(F)(F)F)c4)nc23)s1 [Example 265]	0 (no)
Nc1ccc(C#Cc2ncn3c(C(F)(F)F)cc(-c4ccc(C(F)(F)F)cc4)nc23)cn1 [Example 284]	1 (yes)

Note: attention shifts to another entry.
Quick check, melting point >= 200 °C? CC(C)(CO)NS(=O)(=O)c1ccc(C#Cc2cnn3c(C(F)F)cc(-c4ccc(C(F)(F)F)cc4)nc23)s1 [Example 169] 0 (no)
